Here, each record is paired with measured z-score data.
assay: survival rescue of mitochondrial mutant cells in low glucose, primary screen, MELAS cybrids, Rieske KO mouse fibroblasts, CellTiter-Glo (AID 1508586); conditions: MELAS cybrid survival, CellTiter-Glo 48 h, stronger effect = higher value;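 further: test concentration not given here; z relative to plate mean and SD of compound and empty wells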
test_readout: z-score

>>> df
                                    molecule  value_observed
 0  COc1ccc(C2=C(N3CCc4ccccc43)C(=O)NC2=O)cc1           -0.15
 1  O=S1CCN(Cc2ccc(-c3ccc4ncnc(Nc5ccc(OCc6cccc(F)c6)c(Cl)c5)c4c3)o2)CC1           0.445
 2  CS(=O)(=O)CCNCc1ccc(-c2ccc3ncnc(Nc4ccc(OCc5cccc(C(F)(F)F)c5)cc4)c3c2)o1           0.798
 3  CC(C)(C)NCC(O)c1cc(O)cc(O)c1 (centres undefined)          -0.672
 4  O=C(Nc1n[nH]c2nc(-c3ccco3)c(Br)cc12)C1CC1           -1.24
 5  CC(=Nc1ccc(S(N)(=O)=O)cc1)c1c(O)[nH]c2ccccc12          -0.469
 6  CCS(=O)(=O)c1ccc(OC)c(Nc2nccc(N(C)c3ccc4c(C)[nH]nc4c3)n2)c1            1.33
 7  O=C(NCC1CC1)c1ccc(-c2cccc(C(=O)NC3CC3)c2)cc1          -0.117
 8  NC(=O)c1sc(-n2cnc3ccc(C(F)(F)F)cc32)cc1OCc1ccccc1Br          -0.166
 9  Fc1ccc(-c2cc(C3CNNC3c3ccccn3)ccn2)cc1 (centres undefined)           0.213
10  Nc1nccc(-c2c(-c3ccc(F)cc3)nn3cc(C(F)(F)F)ccc23)n1          -0.218
11  NS(=O)(=O)c1ccc(NC2CC(c3cccc(O)c3)NN2)cc1 (centres undefined)            1.31
12  O=C1Nc2ccc(I)cc2/C1=C\c1cc(Br)c(O)c(Br)c1           0.405
13  CS(=O)(=O)c1ccc(Oc2nccc(-c3c(-c4ccc(F)cc4)ncn3C3CCNCC3)n2)cc1         -0.0537
14  CO[C@@]1(NC(=O)Cc2cccs2)C(=O)N2C(C(=O)O)=C(COC(N)=O)CS[C@@H]21           0.626
15  Cc1ccc(NC(=O)c2ccoc2)cc1-c1ccc(C(=O)NCC2CC2)cc1           -1.06
16  CCCN1CCC(Oc2cc(Nc3nc(Nc4cccc(F)c4C(N)=O)c4cc[nH]c4n3)c(OC)cc2Cl)CC1           0.312
17  NS(=O)(=O)c1ccc(N=Nc2c(O)[nH]c3ccc(C(=O)NCCc4cnc[nH]4)cc23)cc1          0.0573
18  Cc1nc2ccccn2c(=O)c1CCN1CCC(C(=O)c2ccc(F)cc2)CC1         -0.0109
19  O=C1[C@H](CC[C@H](O)c2ccc(F)cc2)[C@@H](c2ccc(O)cc2)N1c1ccc(F)cc1          -0.744
20  O=C1N=C(O)CN1/N=C/c1ccc(-c2ccc([N+](=O)[O-])cc2)o1           0.073
21   Cc1ccc(O)cc1Nc1ccnc2ccc(S(C)(=O)=O)cc12          -0.116
22  CN1CCC(n2cnc(-c3ccc(F)cc3)c2-c2ccnc(Nc3ccccc3)n2)CC1          -0.528
23    N#Cc1cccc(Nc2nccc(-c3cnn4ncccc34)n2)c1           0.321
24  CC(=O)OCC(=O)[C@@]12OC(C)(C)O[C@@H]1C[C@H]1[C@@H]3C[C@H](F)C4=CC(=O)C=C[C@]4(C)[C@@]3(F)[C@@H](O)C[C@@]12C           0.454
25       COc1cc2ncnc(Nc3ccc(C)c(O)c3)c2cc1OC            1.32
26  NS(=O)(=O)c1cc(C2(O)NC(=O)c3ccccc32)ccc1Cl (centres undefined)          -0.366
27  CCCCC1=NC2(CCCC2)C(=O)N1Cc1ccc(-c2ccccc2-c2nn[nH]n2)cc1          -0.829
28  CS(=O)(=O)CCNCc1ccc(-c2ccc3ncnc(Nc4ccc(OCc5cccc(F)c5)c(C(F)(F)F)c4)c3c2)o1          -0.506
